Readings of Biochem EGFR %Inhibition for the listed compounds
molecular target: EGFR (Homo sapiens, UniProt P00533); construct: Add 7 ug A431 cell lysate per well (EGFR source); endogenous in cells; host or cells: A431; experiment: EGFR ELISA assay (in vitro kinase activity, EGFR captured from A431 cell lysate); type: biochemical; parameters: concentration or dose not given beside the values
Sequence (P00533 25-1210): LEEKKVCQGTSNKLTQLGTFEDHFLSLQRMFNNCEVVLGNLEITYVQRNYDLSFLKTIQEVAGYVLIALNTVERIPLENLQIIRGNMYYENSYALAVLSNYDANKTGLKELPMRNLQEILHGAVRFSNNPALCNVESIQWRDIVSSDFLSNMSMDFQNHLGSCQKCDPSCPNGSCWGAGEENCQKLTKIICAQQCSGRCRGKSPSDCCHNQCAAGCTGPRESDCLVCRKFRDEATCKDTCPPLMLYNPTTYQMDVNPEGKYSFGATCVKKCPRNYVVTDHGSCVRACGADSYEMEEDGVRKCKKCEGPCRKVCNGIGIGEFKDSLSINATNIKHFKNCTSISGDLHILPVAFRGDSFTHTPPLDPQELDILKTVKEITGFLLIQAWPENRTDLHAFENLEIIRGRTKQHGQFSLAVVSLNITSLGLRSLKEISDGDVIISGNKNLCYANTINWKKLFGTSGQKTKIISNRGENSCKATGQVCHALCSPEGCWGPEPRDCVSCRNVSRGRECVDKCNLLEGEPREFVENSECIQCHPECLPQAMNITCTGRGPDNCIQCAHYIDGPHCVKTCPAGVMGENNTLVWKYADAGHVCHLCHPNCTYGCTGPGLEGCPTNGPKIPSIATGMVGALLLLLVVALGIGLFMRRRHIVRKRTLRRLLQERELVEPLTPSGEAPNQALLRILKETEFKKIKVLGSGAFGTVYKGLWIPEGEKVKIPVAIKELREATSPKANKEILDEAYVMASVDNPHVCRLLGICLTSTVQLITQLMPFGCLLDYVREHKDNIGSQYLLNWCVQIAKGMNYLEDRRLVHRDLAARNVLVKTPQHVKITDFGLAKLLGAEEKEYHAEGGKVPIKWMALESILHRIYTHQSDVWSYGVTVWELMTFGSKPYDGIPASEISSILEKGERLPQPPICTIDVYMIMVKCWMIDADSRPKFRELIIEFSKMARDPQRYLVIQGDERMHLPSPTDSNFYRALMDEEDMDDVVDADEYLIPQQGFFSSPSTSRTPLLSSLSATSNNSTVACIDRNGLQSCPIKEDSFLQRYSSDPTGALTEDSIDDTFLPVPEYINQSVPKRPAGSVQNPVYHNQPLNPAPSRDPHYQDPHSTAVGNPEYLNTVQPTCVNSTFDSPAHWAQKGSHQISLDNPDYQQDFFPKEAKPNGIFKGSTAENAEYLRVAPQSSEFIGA
Entry rule: numbers only, all in %.

Look over these answered cases.
Cc1c(Br)ccc2c1C(=Cc1cccn1-c1ccc(Cl)cc1)C(=O)N2 | 1.0
Cc1cc(C=C2C(=O)Nc3ccc(I)cc32)ccc1O | 11.9
O=C1Nc2c(Br)cc(Br)cc2C1=Cc1cccc(F)c1O | 6.8

Consider now this further compound.
Ask: Looking for the measured Biochem EGFR %Inhibition of CNS(=O)(=O)c1ccc2c(c1)C(=CC1C=CCCC1)C(=O)N2 (stereo not shown) , can you help?
Result: 19.2
